# System: CFLP mice
# TEST DESCRIPTION: Antimetrazole activity (protection from tonic extensor spasm)
# Assay type: in vivo
# TEST PARAMETERS: Mus musculus, ip, 1 h, screen test, i.p., 1 hour before test; metrazole 125 mg./kg. s.c.; read-out: Antimetrazole ED50
Here the recorded log10(ED50) is given for each entry.
READOUT TYPE: log10(ED50) (log10 of the value in mg/kg)

| COMPOUND | log10(ED50) |
| --- | --- |
| CC(=O)N1CC(=O)N(C)c2ccc(Cl)cc2C1c1ccccc1 (centres unmarked) [Example 28] | 0.85 |
| CN1C(=O)CN(C(=O)c2ccccc2Cl)C(c2ccccc2)c2cc(Cl)ccc21 (centres unmarked) [Example 31] | 1.15 |
| CC(NC(=O)N1CC(=O)N(C)c2ccc(Cl)cc2C1c1ccccc1)c1ccccc1 (centres unmarked) [Example 24] | 1.13 |
| CNC(=O)N1CC(=O)Nc2ccccc2C1c1ccccc1 (centres unmarked) [Example 15] | 1.30 |
| CCOC(=O)N1CC(=O)Nc2ccc([N+](=O)[O-])cc2C1c1ccccc1 (centres unmarked) [Example 2] | 1.10 |
| CNC(=O)N1CC(=O)Nc2ccc([N+](=O)[O-])cc2C1c1ccccc1 (centres unmarked) [Example 14] | 1.29 |
| CNC(=O)N1CC(=O)Nc2ccc(Cl)cc2C1c1ccccc1 (centres unmarked) [Example 16] | 0.61 |
| CN1C(=O)CN(C(N)=O)C(c2ccccc2)c2cc(Cl)ccc21 (single isomer, unassigned; (+)) [Example 55] | 0.22 |
| NC(=O)N1CC(=O)Nc2ccc(Cl)cc2C1c1ccccc1 (centres unmarked) [Example 13] | 0.69 |
| CCCCNC(=O)N1CC(=O)Nc2ccc([N+](=O)[O-])cc2C1c1ccccc1 (centres unmarked) [Example 18] | 1.15 |
| CN1C(=O)CN(C=O)C(c2ccccc2)c2cc(Cl)ccc21 (centres unmarked) [Example 33] | 0.53 |

====

# TEST DESCRIPTION: Acute toxicity
# Assay type: in vivo, CFLP mice
# TEST PARAMETERS: mouse, in vivo, ip; death rate observed for one week; read-out: LD50 i.p.
READOUT TYPE: LD50 at 168 h

| COMPOUND | EXPERIMENTAL RESULT |
| --- | --- |
| CCOC(=O)N1CC(=O)Nc2ccc([N+](=O)[O-])cc2C1c1ccccc1 (stereo not drawn) [Example 2] | > 1600 mg/kg |
| CNC(=O)N1CC(=O)Nc2ccccc2C1c1ccccc1 (stereo not drawn) [Example 15] | > 500 mg/kg |
| CN1C(=O)CN(C(=O)c2ccccc2Cl)C(c2ccccc2)c2cc(Cl)ccc21 (stereo not drawn) [Example 31] | > 1600 mg/kg |

====

# System: CFLP mice
# TEST DESCRIPTION: Hexobarbital narcosis potentiating effect
# Type: in vivo
# TEST PARAMETERS: screen test, i.p., 1 hour before hexobarbital 60 mg./kg. into tail vein; change of sleeping period related to controls

| COMPOUND | TARGET OR TEST SYSTEM | Hexobarbital potentiation, % [%] |
| --- | --- | --- |
| CNC(=O)N1CC(=O)Nc2ccc(Cl)cc2C1c1ccccc1 (stereo not shown) | CFLP mice | 104 |
| CC(=O)N1CC(=O)N(C)c2ccc(Cl)cc2C1c1ccccc1 (stereo not shown) | CFLP mice | 125 |
| CN1C(=O)CN(C(N)=O)C(c2ccccc2)c2cc(Cl)ccc21 (single isomer, unassigned; (+)) [Example 55] | CFLP mice | 368 |
| NC(=O)N1CC(=O)Nc2ccc(Cl)cc2C1c1ccccc1 (stereo not shown) | CFLP mice | 89 |
